Molecular target: Adenosine receptor A2b (Homo sapiens) (UniProt P29275)
Sequence (P29275 whole entry): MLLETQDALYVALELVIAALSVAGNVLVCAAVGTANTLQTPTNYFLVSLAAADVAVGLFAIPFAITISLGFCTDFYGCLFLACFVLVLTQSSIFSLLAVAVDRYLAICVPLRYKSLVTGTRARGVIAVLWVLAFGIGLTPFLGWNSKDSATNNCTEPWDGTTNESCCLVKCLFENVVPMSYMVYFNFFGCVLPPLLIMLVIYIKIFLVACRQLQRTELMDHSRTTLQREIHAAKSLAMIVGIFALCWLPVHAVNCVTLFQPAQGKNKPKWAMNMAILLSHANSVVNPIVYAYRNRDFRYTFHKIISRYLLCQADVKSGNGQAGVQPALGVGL
Test: Displacement of [3H]DPCPX from human adenosine A2B receptor expressed in HEK293 cell membranes at 1 uM incubated for 30 mins by scintillation counting method
Conditions: Cell membrane
parameter: inhibition (%)
Field: numeric (%). Do not append units.

Known inhibition results, listed for orientation:
{"columns": ["compound", "inhibition (%)"],
 "data": [
  ["CCC(CC)OC(=O)C1=C(C)NC(=O)NC1c1ccco1 (racemic)", 35],
  ["CCN(CC)C(=O)C1=C(C)NC(=O)NC1c1ccsc1 (racemic)", 11],
  ["CCSC(=O)C1=C(C)NC(=O)NC1c1cccs1 (racemic)", 1],
  ["CCCC(=O)C1=C(C)NC(=O)NC1c1ccsc1 (racemic)", 9],
  ["CC1=C(C(=O)OC(C)(C)C)C(c2ccsc2)NC(=O)N1C (racemic)", 35]
]}

With those in mind, consider the next compound.
The value of inhibition measured for the compound CC1=C(C(=O)NC(C)C)C(c2ccsc2)NC(=O)N1 (racemic) turned out to be 3

====

Biological target: Adenosine receptor A2a (Homo sapiens) (UniProt P29274)
Sequence (P29274 whole entry): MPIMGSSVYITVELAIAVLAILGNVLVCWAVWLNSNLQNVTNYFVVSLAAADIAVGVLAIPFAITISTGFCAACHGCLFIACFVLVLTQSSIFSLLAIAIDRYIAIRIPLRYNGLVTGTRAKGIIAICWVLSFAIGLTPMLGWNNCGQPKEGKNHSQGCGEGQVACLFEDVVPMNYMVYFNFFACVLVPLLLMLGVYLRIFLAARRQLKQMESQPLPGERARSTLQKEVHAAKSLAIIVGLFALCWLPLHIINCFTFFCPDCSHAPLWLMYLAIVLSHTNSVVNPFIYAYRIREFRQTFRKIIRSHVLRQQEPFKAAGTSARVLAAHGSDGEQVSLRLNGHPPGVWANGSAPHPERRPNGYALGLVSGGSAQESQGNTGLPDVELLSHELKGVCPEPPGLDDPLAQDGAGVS
Assay: Displacement of [3H]ZM2421385 from adenosine A2A receptor expressed in human HeLa cell membranes at 1 uM incubated for 30 mins by scintillation counting method
Settings: Cell membrane
Lab note: anything with inhibition at or over 2% counts as yes (1); the rest go in no (0).

Examples with answers:
{"columns": ["compound", "target_desc", "qualitative_label"],
 "data": [
  ["CC1=C(C(=O)OC(C)(C)C)C(c2ccco2)NC(=S)N1 (racemic)", "Adenosine receptor A2a (Homo sapiens) (UniProt P29274)", "no (0)"],
  ["CC1=C(C(=O)OCC(C)C)C(c2ccsc2)NC(=O)N1 (racemic)", "Adenosine receptor A2a (Homo sapiens) (UniProt P29274)", "yes (1)"],
  ["CCCOC(=O)C1=C(C)N(C)C(=O)NC1c1ccoc1 (racemic)", "Adenosine receptor A2a (Homo sapiens) (UniProt P29274)", "no (0)"],
  ["CC1=C(C(=O)OC2CCCCC2)C(c2cccs2)NC(=O)N1 (racemic)", "Adenosine receptor A2a (Homo sapiens) (UniProt P29274)", "yes (1)"]
]}

Is the recorded value of inhibition equal to or greater than 2% for this compound? CC1=C(C(=O)OC2CCCCC2)C(c2ccco2)NC(=O)N1 (racemic)
yes (1)

Quick check, inhibition >= 2%? CC1=C(C(=O)OCC2CCC2)C(c2ccco2)NC(=O)N1 (racemic)
yes (1)

Decide: inhibition of CC1=C(C(=O)C2CC2)C(c2ccoc2)NC(=O)N1 (racemic) >= 2%?
no (0)

Is reported inhibition greater than or equal to 2% here: CC1=C(c2ncc(C)o2)C(c2cccs2)NC(=O)N1 (racemic)
yes (1)

Given CC1=C(C(=O)CC(C)C)C(c2ccoc2)NC(=O)N1 (racemic) , state whether its inhibition is at least 2%.
yes (1)

Say whether CCN(CC)C(=O)C1=C(C)NC(=O)NC1c1ccco1 (racemic) shows inhibition of 2% or more.
yes (1)

Does the compound CCSC(=O)C1=C(C)NC(=O)NC1c1ccoc1 (racemic) have recorded inhibition that is 2% or more?
no (0)

Hello, I need to know if CC1=C(C(=O)OC2CCCCC2)C(c2ccoc2)NC(=O)N1 (racemic) has measured inhibition not below 2%. Thanks!
yes (1)

====

Molecular target: Adenosine receptor A1 (Homo sapiens) (UniProt P30542)
Sequence (P30542 whole entry): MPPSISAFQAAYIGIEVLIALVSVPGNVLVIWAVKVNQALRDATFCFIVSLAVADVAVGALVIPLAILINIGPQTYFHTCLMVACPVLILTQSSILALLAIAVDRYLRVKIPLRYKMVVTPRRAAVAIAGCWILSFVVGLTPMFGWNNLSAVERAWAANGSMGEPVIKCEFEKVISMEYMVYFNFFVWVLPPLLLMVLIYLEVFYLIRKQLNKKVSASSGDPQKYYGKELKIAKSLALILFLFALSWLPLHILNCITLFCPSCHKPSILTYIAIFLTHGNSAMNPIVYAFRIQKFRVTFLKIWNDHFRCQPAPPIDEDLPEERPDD
Test: Displacement of [3H]DPCPX from human adenosine A1 receptor expressed in CHO cell membranes at 1 uM incubated for 60 mins by scintillation counting method
Details: Cell membrane
Use 20% as the dividing line for inhibition, with the line itself on the True side and lower values as False.

Please review the entries below; each comes with its answer.
{"columns": ["compound", "qualitative_label"],
 "data": [
  ["CCOP(=O)(OCC)C1=C(C)NC(=O)NC1c1ccsc1 (racemic)", "False"],
  ["CC1=C(C(=O)OC2CCCCC2)C(c2cccs2)NC(=O)N1 (racemic)", "False"],
  ["CC1=C(c2ncc(C)o2)C(c2cccs2)NC(=O)N1 (racemic)", "True"],
  ["CC1=C(C(=O)OCc2ccccc2)C(c2cccs2)NC(=O)N1 (racemic)", "True"],
  ["CCOC(=O)C1=C(C)NC(=O)N[C@@H]1c1ccsc1", "False"],
  ["CC1=C(C(=O)OCc2ccccc2)C(c2cccs2)NC(=O)N1C (racemic)", "True"],
  ["CCOP(=O)(OCC)C1=C(C)NC(=O)NC1c1ccoc1 (racemic)", "False"],
  ["CC1=C(C(=O)OCc2ccccc2)C(c2ccsc2)NC(=O)N1C (racemic)", "True"]
]}

API: above_or_equal(metric=inhibition, cutoff=20%) for item CC1=C(C(=O)OC(C)(C)C)C(c2ccco2)NC(=S)N1 (racemic)
False

Form field: inhibition at least 20%? Entry: `CC1=C(C(=O)OC(C)C)[C@H](c2ccco2)NC(=S)N1`
False

Quick check, inhibition >= 20%? CC1=C(C(=O)OCc2ccccc2)C(c2ccoc2)NC(=O)N1C (racemic)
True

State whether the measured inhibition reaches 20%, counting equality as reaching it, for CC1=C(C(=O)SC(C)C)C(c2ccoc2)NC(=O)N1 (racemic)
False

// inclusive: inhibition at least 20%? input: CC1=C(C(=O)OCC(C)C)C(c2ccco2)NC(=O)N1 (racemic)
True

Please indicate if the recorded inhibition for COC(=O)C1=C(C)N=C(S)NC1c1ccco1 (racemic) meets or exceeds 20%.
False

Tell me whether inhibition is at least 20% here: CCCC(=O)C1=C(C)NC(=O)NC1c1ccsc1 (racemic)
False

====

Target: Adenosine receptor A2a (Homo sapiens) (UniProt P29274)
Test: Displacement of [3H]ZM2421385 from adenosine A2A receptor expressed in human HeLa cell membranes at 1 uM incubated for 30 mins by scintillation counting method
Details: Cell membrane
parameter: inhibition (%)
Write the answer as a number in %, unit excluded.

{"columns": ["compound", "obs_value"],
 "data": [
  ["CC1=C(C(=O)OCC2CC2)C(c2ccsc2)NC(=O)N1 (racemic)", 46]
]}

According to the records, this compound CCCOC(=O)C1=C(C)N(C)C(=O)NC1c1ccsc1 (racemic) displays inhibition of 3

Recorded result, CC1=C(C(=O)OCC(C)C)C(c2cccs2)NC(=O)N1 (racemic) , inhibition: 12

Given item CCOP(=O)(OCC)C1=C(C)NC(=O)NC1c1ccco1 (racemic) , the value recorded as its inhibition is 4

Item: CC1=C(C(=O)OCC2CC2)C(c2ccco2)NC(=O)N1 (racemic) | inhibition: 36

====

Molecular target: UniProtKB P0DMS8
Sequence (P0DMS8 whole entry): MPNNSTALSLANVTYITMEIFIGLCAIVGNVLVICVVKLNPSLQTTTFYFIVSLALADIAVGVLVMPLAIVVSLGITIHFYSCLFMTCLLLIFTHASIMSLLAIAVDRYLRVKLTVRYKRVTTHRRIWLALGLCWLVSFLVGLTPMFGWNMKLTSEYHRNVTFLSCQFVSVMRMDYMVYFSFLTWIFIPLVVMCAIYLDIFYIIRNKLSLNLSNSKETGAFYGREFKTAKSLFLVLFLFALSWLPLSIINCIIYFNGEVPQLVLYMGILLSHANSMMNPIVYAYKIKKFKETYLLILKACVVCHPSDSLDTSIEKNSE
Test: Displacement of [3H]NECA from adenosine A3 receptor expressed in human HeLa cell membranes at 1 uM incubated for 180 mins by scintillation counting method
Settings: Cell membrane
parameter: inhibition
Just the number plus its unit, please.

Below, each entry is followed by its recorded inhibition result.
{"columns": ["compound", "inhibition"],
 "data": [
  ["CC(=O)C1=C(C)NC(=O)NC1c1ccsc1 (racemic)", "1%"],
  ["CCOC(=O)C1=C(C)NC(=O)N[C@@H]1c1ccsc1", "6%"],
  ["CCCOC(=O)C1=C(C)N(C)C(=O)NC1c1ccoc1 (racemic)", "16%"],
  ["CC1=C(C(=O)NC(C)C)C(c2ccsc2)NC(=O)N1 (racemic)", "1%"]
]}

Here is the next item to consider.
// inhibition (UniProtKB P0DMS8) for CCN(CC)C(=O)C1=C(C)NC(=O)NC1c1ccco1 (racemic) = 19%

====

Molecular target: Adenosine receptor A1 (Homo sapiens) (UniProt P30542)
Assay: Displacement of [3H]DPCPX from human adenosine A1 receptor expressed in CHO cell membranes at 1 uM incubated for 60 mins by scintillation counting method
Settings: Cell membrane
Param threshold (3%) applies to inhibition; output condition met when value >= threshold, condition not met when value < threshold.

Below are worked cases with known answers.
{"columns": ["compound", "qualitative_label"],
 "data": [
  ["CC(=O)C1=C(C)NC(=O)NC1c1ccsc1 (racemic)", "condition met"],
  ["CC1=C(C(=O)OCC2CC2)C(c2cccs2)NC(=O)N1 (racemic)", "condition met"],
  ["CC1=C(C(=O)OC2CCC2)C(c2ccco2)NC(=O)N1 (racemic)", "condition met"]
]}

Hi, just wondering whether CC1=C(C(=O)OCC(C)C)C(c2ccsc2)NC(=O)N1 (racemic) shows inhibition of 3% or higher.
condition met

Does the compound CC1=C(C(=O)NC(C)C)C(c2ccoc2)NC(=O)N1 (racemic) have recorded inhibition that is 3% or more?
condition not met

Exam item: decide whether the reported inhibition for COC(=O)C1=C(C)NC(=S)NC1c1cccs1 (racemic) is at least 3%.
condition not met

Textbook exercise: given the entry CC1=C(C(=O)OCc2ccccc2)C(c2ccoc2)NC(=O)N1 (racemic) , state whether its inhibition is greater than or equal to 3%.
condition met

Check the entry CC1=C(C(=O)SC(C)C)C(c2ccsc2)NC(=O)N1 (racemic) : does inhibition equal or exceed 3%?
condition met

Textbook exercise: given the entry CC1=C(C(N)=O)C(c2cccs2)NC(=O)N1 (racemic) , state whether its inhibition is greater than or equal to 3%.
condition not met

Check the entry CCCOC(=O)C1=C(C)NC(=S)NC1c1ccco1 (racemic) : does inhibition equal or exceed 3%?
condition not met

Is reported inhibition greater than or equal to 3% here: CC1=C(C(=O)NC(C)C)C(c2ccsc2)NC(=O)N1 (racemic)
condition met

In plain terms: is recorded inhibition at least 3% for CCCOC(=O)C1=C(C)NC(=S)NC1c1ccsc1 (racemic) ?
condition met

Decide: inhibition of CC1=C(C(=O)OCC(C)C)C(c2cccs2)NC(S)=N1 (racemic) >= 3%?
condition not met

Identify whether the reported inhibition of the following compound is 3% or greater: CCOC(=O)C1=C(C)N(C)C(=O)NC1c1cccs1 (racemic)
condition not met
